experiment: Single-ascending dose (SAD) study in healthy subjects: plasma and urine pharmacokinetics; conditions: human, in vivo, po, 180 mg
OUTCOME_MEASURE: Vd/F (L)
I only need the number, in L, no unit after it.

Reported Vd/F ( CCC(=O)N[C@@H]1CCCc2c(-c3ccc4c(c3)CCC(=O)N4C)cncc21 [(R)-Compound 1] ) = 114

====

experiment: Single-ascending dose (SAD) study in healthy subjects: plasma and urine pharmacokinetics; conditions: human, in vivo, po, 360 mg
OUTCOME_MEASURE: AUC(0-t) (ng·h/mL)
Kindly provide the numeric value in ng·h/mL only, without the unit symbol.

The measured AUC(0-t) associated with CCC(=O)N[C@@H]1CCCc2c(-c3ccc4c(c3)CCC(=O)N4C)cncc21 [(R)-Compound 1] reads 73200

====

assay: Multiple-ascending dose (MAD) study, once daily for 10 days in healthy subjects: plasma pharmacokinetics; assay type: in vivo, human; settings: human, plasma, oral, 2.5 mg, 2.5 mg QD, low salt diet; Day 10; mean (CV %); read-out: Vss/F
OUTCOME_MEASURE: Vd/F
Give your result as the value with the unit written after it.

Sure, the documented Vd/F for CCC(=O)N[C@@H]1CCCc2c(-c3ccc4c(c3)CCC(=O)N4C)cncc21 [(R)-Compound 1] is 135 L

====

experiment: MAD study: urine pharmacokinetics; assay type: in vivo, human; set-up: unit not given here; details: human, urine, oral, 1.5 mg, 1.5 mg QD, normal salt diet; mean; read-out: CLR, D 1 (renal clearance, Day 1) (converted)
OUTCOME_MEASURE: CL renal
Provide a numeric answer; units are not to be included.

Consider CCC(=O)N[C@@H]1CCCc2c(-c3ccc4c(c3)CCC(=O)N4C)cncc21 [(R)-Compound 1] . Its measured CL renal is 0.00958

====

Test: Single-ascending dose (SAD) study in healthy subjects: plasma and urine pharmacokinetics
Settings: human, in vivo, po, 30 mg
Protocol: A second, generally lower peak was often observed at 3 to 4 hours postdose. A second, generally lower peak was often observed at 3 to 4 hours post-dose. […] Over the anticipated therapeutically relevant dose range (through 10 mg), peak and overall exposures (as assessed by Cmax and area under the concentration-time curve [AUC]) increased in a generally dose-proportional manner. Single- and Multiple-Dose Plasma Pharmacokinetics of (R)-compound 1. […]
OUTCOME_MEASURE: AUC(0-t) (ng·h/mL)
Report the value in ng·h/mL with no unit label.

Measured AUC(0-t) of CCC(=O)N[C@@H]1CCCc2c(-c3ccc4c(c3)CCC(=O)N4C)cncc21 [(R)-Compound 1] : 5260

====

assay: Relative bioavailability of tablet versus oral solution, single 5 mg dose; assay type: in vivo, human; details: human, plasma, oral, 5 mg, tablet, read-out: AUC0-inf, GM (Geo. CV %)
OUTCOME_MEASURE: AUC(0-inf) (ng·h/mL)
Give the number; ng·h/mL is assumed, so skip it.

// sample CCC(=O)N[C@@H]1CCCc2c(-c3ccc4c(c3)CCC(=O)N4C)cncc21 [(R)-Compound 1] , its AUC(0-inf) was 1670

====

test: Multiple-ascending dose (MAD) study, once daily for 10 days in healthy subjects: plasma pharmacokinetics; format: in vivo, human; details: human, plasma, oral, 5 mg, 5.0 mg QD, low salt diet; Day 10; mean (CV %); read-out: Vss/F
OUTCOME_MEASURE: Vd/F

Entry CCC(=O)N[C@@H]1CCCc2c(-c3ccc4c(c3)CCC(=O)N4C)cncc21 [(R)-Compound 1] , Vd/F reported as 134 L
